Test system: IGROV1 ovarian
procedure_summary: NCI tumour cell line growth inhibition, 48 h; in the data active = GI50 below about 0.43 µM; inactive = the rest
Output constraint: value belongs to 1 = active, 0 = inactive

Use the examples below as a reference point.
                                   compound  qualitative_label
0    CCN(CC)CCOc1ccc(-c2nc3cc(Cl)ccc3s2)cc1                  0
1  CCOC(=O)CCCn1c(SC)nc2[nH]cc(-c3ccccc3)c2c1=O                  0
2          Cn1cc(CO)c2c1C(=O)C=C(N1CC1)C2=O                  1

Now turn to the next compound.
Just curious, what result did COc1ccc(C(C)=O)cc1N1C(=O)C2C(C1=O)C1(c3ccccc3)C(=O)C2(c2ccccc2)C(c2ccc(C)cc2)=C1c1ccc(C)cc1 (centres undefined) get here?
0
